TARGET: Aβ1–42 (Homo sapiens, UniProt P05067)
Sequence (P05067 672-713): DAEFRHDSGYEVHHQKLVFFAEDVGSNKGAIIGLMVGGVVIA
PROTOCOL TEXT: Inhibition of self-induced Aβ1–42 aggregation
Assay type: biochemical
RUN CONDITIONS: read-out: Inhibition of Aβ1–42 aggregation (%) Self-induced, 25 μM; ThT assay
Categories are defined by ranges of inhibition at 25 µM, namely bottom bin (below 50%), middle bin (50% to below 70%), top bin (70% or more)

Answered examples (7):
Input line: // bin(item) where item = COc1cc(O)c(C(=O)/C=C/c2ccc(O)cc2)c(OC)c1OC
Output line: bottom bin

Input line: // bin(item) where item = COc1ccccc1CN(C)CCCOc1ccc(/C=C/C(=O)c2c(O)cc(OC)c(OC)c2OC)cc1
Output line: middle bin

Input line: // bin(item) where item = CCN(CC)CCCCOc1ccc(/C=C/C(=O)c2c(O)cc(OC)c(OC)c2OC)cc1
Output line: bottom bin

Input line: // bin(item) where item = COc1ccccc1CN(C)CCCCCCOc1ccc(/C=C/C(=O)c2c(O)cc(OC)c(O)c2OC)cc1 [Compound 17e]
Output line: middle bin

Input line: // bin(item) where item = COc1ccccc1CN(C)CCCOc1ccc(/C=C/C(=O)c2c(O)cc(OC)c(O)c2OC)cc1 [Compound 17a]
Output line: middle bin

Input line: // bin(item) where item = CCN(CCCCCCOc1ccc(/C=C/C(=O)c2c(O)cc(OC)c(O)c2OC)cc1)Cc1ccccc1OC [Compound 17f]
Output line: top bin

Input line: // bin(item) where item = COc1cc(/C=C/C(=O)CC(=O)/C=C/c2ccc(O)c(OC)c2)ccc1O [Curcumin, reference compound]
Output line: bottom bin

Okay, now this molecule:
Input line: // bin(item) where item = CCN(CCCOc1ccc(/C=C/C(=O)c2c(O)cc(OC)c(O)c2OC)cc1)Cc1ccccc1OC [Compound 17b]
Output line: top bin

====

TARGET: eeAChE (Electrophorus electricus, UniProt O42275)
Sequence (O42275 24-633): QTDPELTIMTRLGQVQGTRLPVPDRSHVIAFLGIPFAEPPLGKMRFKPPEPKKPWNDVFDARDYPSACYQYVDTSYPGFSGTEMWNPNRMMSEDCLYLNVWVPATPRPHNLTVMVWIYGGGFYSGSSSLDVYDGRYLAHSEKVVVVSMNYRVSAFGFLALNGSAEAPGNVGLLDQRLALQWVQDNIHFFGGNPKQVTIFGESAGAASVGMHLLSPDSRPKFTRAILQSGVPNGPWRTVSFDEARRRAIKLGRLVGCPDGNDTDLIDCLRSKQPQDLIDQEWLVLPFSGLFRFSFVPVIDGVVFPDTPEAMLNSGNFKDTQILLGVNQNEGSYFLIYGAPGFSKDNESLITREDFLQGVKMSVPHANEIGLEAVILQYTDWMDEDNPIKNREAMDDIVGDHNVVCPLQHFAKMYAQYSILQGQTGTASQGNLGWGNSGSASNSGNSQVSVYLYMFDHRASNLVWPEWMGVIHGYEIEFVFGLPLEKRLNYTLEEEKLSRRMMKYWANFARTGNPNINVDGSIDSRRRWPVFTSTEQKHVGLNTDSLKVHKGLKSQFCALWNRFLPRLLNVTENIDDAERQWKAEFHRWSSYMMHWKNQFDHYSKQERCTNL
PROPERTY NAME: IC50 (nM)
Entry rule: numbers only, all in nM.

Example entries begin here.
Measured IC50, CCN(CCCCCCOc1ccc(/C=C/C(=O)c2c(O)cc(OC)c(OC)c2OC)cc1)Cc1ccccc1OC : 1780

Measured IC50, COc1ccccc1CN(C)CCCOc1ccc(/C=C/C(=O)c2c(O)cc(OC)c(OC)c2OC)cc1 : 1460

Measured IC50, COc1ccccc1CN(C)CCCCCCOc1ccc(/C=C/C(=O)c2c(O)cc(OC)c(O)c2OC)cc1 [Compound 17e] : 2160

Measured IC50, CCN(CCCCOc1ccc(/C=C/C(=O)c2c(O)cc(OC)c(OC)c2OC)cc1)Cc1ccccc1OC : 1200

Measured IC50, CCN(CCCCCCOc1ccc(/C=C/C(=O)c2c(O)cc(OC)c(O)c2OC)cc1)Cc1ccccc1OC [Compound 17f] : 1880

---
Measured IC50, COc1ccccc1CN(C)CCCCCCOc1ccc(/C=C/C(=O)c2c(O)cc(OC)c(OC)c2OC)cc1 : 1000

Measured IC50, CCN(CCCOc1ccc(/C=C/C(=O)c2c(O)cc(OC)c(OC)c2OC)cc1)Cc1ccccc1OC : 1620

====

TARGET: UniProtKB P27338
Sequence (P27338 whole entry): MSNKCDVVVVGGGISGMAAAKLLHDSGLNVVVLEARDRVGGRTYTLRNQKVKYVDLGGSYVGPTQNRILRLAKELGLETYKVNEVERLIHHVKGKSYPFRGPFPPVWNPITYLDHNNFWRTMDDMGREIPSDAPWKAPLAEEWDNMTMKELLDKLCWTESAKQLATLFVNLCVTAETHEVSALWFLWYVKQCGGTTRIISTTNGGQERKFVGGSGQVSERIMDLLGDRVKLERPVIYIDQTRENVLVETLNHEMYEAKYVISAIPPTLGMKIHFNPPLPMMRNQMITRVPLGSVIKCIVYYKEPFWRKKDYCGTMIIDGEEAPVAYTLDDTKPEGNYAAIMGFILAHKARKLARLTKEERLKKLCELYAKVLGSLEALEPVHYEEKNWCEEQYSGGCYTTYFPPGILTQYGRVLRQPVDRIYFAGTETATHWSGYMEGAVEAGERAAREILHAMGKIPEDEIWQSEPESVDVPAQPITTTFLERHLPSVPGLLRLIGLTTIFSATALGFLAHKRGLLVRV
PROTOCOL TEXT: biochemical
PROPERTY NAME: SI = selectivity index = IC50 (hMAO-A)/IC50 (hMAO-B)

Example entries begin here.
Measured SI = selectivity index = IC50 (hMAO-A)/IC50 (hMAO-B), CCN(CCCCOc1ccc(/C=C/C(=O)c2c(O)cc(OC)c(OC)c2OC)cc1)Cc1ccccc1OC [Compound 9d] : 3.1

Measured SI = selectivity index = IC50 (hMAO-A)/IC50 (hMAO-B), CCN(CC)CCCCOc1ccc(/C=C/C(=O)c2c(O)cc(OC)c(OC)c2OC)cc1 [Compound 10] : 1.9

Measured SI = selectivity index = IC50 (hMAO-A)/IC50 (hMAO-B), CCN(CCCCCCOc1ccc(/C=C/C(=O)c2c(O)cc(OC)c(O)c2OC)cc1)Cc1ccccc1OC [Compound 17f] : 4.3

Measured SI = selectivity index = IC50 (hMAO-A)/IC50 (hMAO-B), COc1ccccc1CN(C)CCCCCCOc1ccc(/C=C/C(=O)c2c(O)cc(OC)c(OC)c2OC)cc1 [Compound 9e] : 15.1

Measured SI = selectivity index = IC50 (hMAO-A)/IC50 (hMAO-B), CCN(CCCOc1ccc(/C=C/C(=O)c2c(O)cc(OC)c(OC)c2OC)cc1)Cc1ccccc1OC [Compound 9b] : 2.4

Measured SI = selectivity index = IC50 (hMAO-A)/IC50 (hMAO-B), CCN(CCCCCCOc1ccc(/C=C/C(=O)c2c(O)cc(OC)c(OC)c2OC)cc1)Cc1ccccc1OC [Compound 9f] : 6.1

Here's the next entry for you.
Measured SI = selectivity index = IC50 (hMAO-A)/IC50 (hMAO-B), COc1ccccc1CN(C)CCCCOc1ccc(/C=C/C(=O)c2c(O)cc(OC)c(OC)c2OC)cc1 [Compound 9c] : 1.5

====

TARGET: Aβ1–42 fibrils (Homo sapiens)
Sequence (P05067 672-713): as the sequence (P05067 672-713) above
PROTOCOL TEXT: Disaggregation of self-induced Aβ1–42 aggregation
Format: biochemical
RUN CONDITIONS: 25 μM; ThT assay
PROPERTY NAME: Disaggregation of Aβ1–42 aggregation (%) Self-induced
Entry rule: numbers only, all in %.

Example entries begin here.
Measured Disaggregation of Aβ1–42 aggregation (%) Self-induced, CCN(CCCOc1ccc(/C=C/C(=O)c2c(O)cc(OC)c(OC)c2OC)cc1)Cc1ccccc1OC : 22.2

Measured Disaggregation of Aβ1–42 aggregation (%) Self-induced, COc1ccccc1CN(C)CCCCOc1ccc(/C=C/C(=O)c2c(O)cc(OC)c(OC)c2OC)cc1 : 45.7

Measured Disaggregation of Aβ1–42 aggregation (%) Self-induced, COc1ccccc1CN(C)CCCCCCOc1ccc(/C=C/C(=O)c2c(O)cc(OC)c(O)c2OC)cc1 [Compound 17e] : 74.8

Measured Disaggregation of Aβ1–42 aggregation (%) Self-induced, COc1ccccc1CN(C)CCCOc1ccc(/C=C/C(=O)c2c(O)cc(OC)c(O)c2OC)cc1 [Compound 17a] : 29.9

Measured Disaggregation of Aβ1–42 aggregation (%) Self-induced, CCN(CC)CCCCOc1ccc(/C=C/C(=O)c2c(O)cc(OC)c(OC)c2OC)cc1 : 25.6

---
Measured Disaggregation of Aβ1–42 aggregation (%) Self-induced, CCN(CCCCOc1ccc(/C=C/C(=O)c2c(O)cc(OC)c(OC)c2OC)cc1)Cc1ccccc1OC : 33.0

Measured Disaggregation of Aβ1–42 aggregation (%) Self-induced, CCN(CCCOc1ccc(/C=C/C(=O)c2c(O)cc(OC)c(O)c2OC)cc1)Cc1ccccc1OC [Compound 17b] : 60.2

Measured Disaggregation of Aβ1–42 aggregation (%) Self-induced, CCN(CCCCOc1ccc(/C=C/C(=O)c2c(O)cc(OC)c(O)c2OC)cc1)Cc1ccccc1OC [Compound 17d] : 45.7

Measured Disaggregation of Aβ1–42 aggregation (%) Self-induced, CCN(CCCCCCOc1ccc(/C=C/C(=O)c2c(O)cc(OC)c(OC)c2OC)cc1)Cc1ccccc1OC : 62.8

Measured Disaggregation of Aβ1–42 aggregation (%) Self-induced, COc1ccccc1CN(C)CCCCOc1ccc(/C=C/C(=O)c2c(O)cc(OC)c(O)c2OC)cc1 [Compound 17c] : 75.9

Measured Disaggregation of Aβ1–42 aggregation (%) Self-induced, COc1ccccc1CN(C)CCCCCCOc1ccc(/C=C/C(=O)c2c(O)cc(OC)c(OC)c2OC)cc1 : 58.2

====

Reported values: IC50 for ratAChE (Rattus norvegicus, UniProt P37136), one per item.

Sample COc1cc(O)c(C(=O)/C=C/c2ccc(O)cc2)c(OC)c1OC , system: ratAChE (Rattus norvegicus, UniProt P37136). Its IC50 is > 500000 nM

---
Sample CCN(CCCCOc1ccc(/C=C/C(=O)c2c(O)cc(OC)c(O)c2OC)cc1)Cc1ccccc1OC [Compound 17d] , system: ratAChE (Rattus norvegicus, UniProt P37136). Its IC50 is 580 nM

Sample CCN(CCCOc1ccc(/C=C/C(=O)c2c(O)cc(OC)c(OC)c2OC)cc1)Cc1ccccc1OC , system: ratAChE (Rattus norvegicus, UniProt P37136). Its IC50 is 670 nM

Sample COc1ccccc1CN(C)CCCOc1ccc(/C=C/C(=O)c2c(O)cc(OC)c(OC)c2OC)cc1 , system: ratAChE (Rattus norvegicus, UniProt P37136). Its IC50 is 3120 nM

====

TARGET: ratAChE (Rattus norvegicus, UniProt P37136)
Sequence (P37136 32-614): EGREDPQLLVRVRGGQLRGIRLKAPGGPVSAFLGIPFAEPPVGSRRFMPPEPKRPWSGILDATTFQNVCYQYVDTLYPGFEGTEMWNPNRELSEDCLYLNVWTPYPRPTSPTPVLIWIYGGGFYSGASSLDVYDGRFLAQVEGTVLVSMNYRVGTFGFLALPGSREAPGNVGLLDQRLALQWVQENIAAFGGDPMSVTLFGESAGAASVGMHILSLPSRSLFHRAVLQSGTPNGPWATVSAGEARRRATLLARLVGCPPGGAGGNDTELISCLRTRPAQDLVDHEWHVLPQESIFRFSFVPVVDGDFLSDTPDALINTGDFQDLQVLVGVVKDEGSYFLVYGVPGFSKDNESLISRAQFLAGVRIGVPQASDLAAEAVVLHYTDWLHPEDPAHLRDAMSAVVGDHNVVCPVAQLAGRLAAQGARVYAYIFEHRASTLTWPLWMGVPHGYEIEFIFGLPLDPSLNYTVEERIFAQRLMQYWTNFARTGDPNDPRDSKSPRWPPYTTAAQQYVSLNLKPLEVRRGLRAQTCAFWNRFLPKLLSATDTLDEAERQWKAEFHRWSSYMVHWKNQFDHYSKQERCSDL
PROTOCOL TEXT: Ellman's method, AChE from rat cortex homogenate
Assay type: biochemical
RUN CONDITIONS: ratBuChE over rat AChE
This section presents compounds with their documented SI = Selectivity index = IC50 (BuChE)/IC50 (AChE) values.

Measured SI = Selectivity index = IC50 (BuChE)/IC50 (AChE), COc1ccccc1CN(C)CCCCOc1ccc(/C=C/C(=O)c2c(O)cc(OC)c(OC)c2OC)cc1 : >282.5

---
Measured SI = Selectivity index = IC50 (BuChE)/IC50 (AChE), CCN(CCCCCCOc1ccc(/C=C/C(=O)c2c(O)cc(OC)c(OC)c2OC)cc1)Cc1ccccc1OC : >819.7

Measured SI = Selectivity index = IC50 (BuChE)/IC50 (AChE), COc1ccccc1CN(C)CCCOc1ccc(/C=C/C(=O)c2c(O)cc(OC)c(O)c2OC)cc1 [Compound 17a] : 94.5

src = paper PMC8667902
